Test system: receptor labeled by the radioiodinated analogue of 1 (4, [125I]-YLFQPQRF-NH2); neuropeptide FF receptor
assay: Competitive radioligand binding against 4 ([125I]Y8F-amide)
protocol conditions: mixture-based positional scanning; difference from averaged radioligand displacement of whole library (0); about 80 a.u. = 10-fold change in Ki
Peptide text beside a SMILES is read from it. * marks the point of attachment. Dansyl = CN(C)c1cccc2c(S(=O)(=O)*)cccc12
property: Relative Binding Index (RBI) (a.u.)

CN(C)c1cccc2c(S(=O)(=O)N[C@@H](CC(=O)O)C(=O)N[C@@H](CC(N)=O)C(=O)N[C@@H](CCCNC(=N)N)C(N)=O)cccc12 [Dansyl-DNR-amide] (Dansyl-Asp-Asn-Arg-NH2) = −4
CC(C)[C@H](NC(=O)[C@H](CCCCN)NS(=O)(=O)c1cccc2c(N(C)C)cccc12)C(=O)N[C@@H](CCCNC(=N)N)C(N)=O [Dansyl-KVR-amide] (Dansyl-Lys-Val-Arg-NH2) = 20
CC(C)[C@H](NC(=O)[C@H](CCCNC(=N)N)NS(=O)(=O)c1cccc2c(N(C)C)cccc12)C(=O)N[C@@H](CCCNC(=N)N)C(N)=O [Dansyl-RVR-amide] (Dansyl-Arg-Val-Arg-NH2) = 2
CC(C)[C@H](NC(=O)[C@H](Cc1c[nH]c2ccccc12)NS(=O)(=O)c1cccc2c(N(C)C)cccc12)C(=O)N[C@@H](CCCNC(=N)N)C(N)=O [Dansyl-WVR-amide] (Dansyl-Trp-Val-Arg-NH2) = 4
CC(C)[C@H](NS(=O)(=O)c1cccc2c(N(C)C)cccc12)C(=O)N[C@@H](CO)C(=O)N[C@@H](CCCNC(=N)N)C(N)=O [Dansyl-VSR-amide] = 16
CN(C)c1cccc2c(S(=O)(=O)N[C@@H](CCCCN)C(=O)N[C@@H](CC(=O)O)C(=O)N[C@@H](CCCNC(=N)N)C(N)=O)cccc12 [Dansyl-KDR-amide] (Dansyl-Lys-Asp-Arg-NH2) = 7
CN(C)c1cccc2c(S(=O)(=O)N[C@@H](Cc3ccccc3)C(=O)N[C@@H](Cc3ccc(O)cc3)C(=O)N[C@@H](CCCNC(=N)N)C(N)=O)cccc12 [Dansyl-FYR-amide] (Dansyl-Phe-Tyr-Arg-NH2) = 8
CSCC[C@H](NS(=O)(=O)c1cccc2c(N(C)C)cccc12)C(=O)N[C@@H](CC(N)=O)C(=O)N[C@@H](CCCNC(=N)N)C(N)=O [Dansyl-MNR-amide] = −43

(a) CC[C@H](C)[C@H](NC(=O)[C@H](CCCNC(=N)N)NS(=O)(=O)c1cccc2c(N(C)C)cccc12)C(=O)N[C@@H](CCCNC(=N)N)C(N)=O [Dansyl-RIR-amide] (Dansyl-Arg-Ile-Arg-NH2)
(b) CN(C)c1cccc2c(S(=O)(=O)N[C@@H](Cc3c[nH]c4ccccc34)C(=O)N[C@@H](Cc3ccc(O)cc3)C(=O)N[C@@H](CCCNC(=N)N)C(N)=O)cccc12 [Dansyl-WYR-amide] (Dansyl-Trp-Tyr-Arg-NH2)
Incoming: Returns: the argument ( a or b ) having the larger Relative Binding Index (RBI). Bench note: the answer is the label of the chosen record.
Outgoing: a

---

System: receptor labeled by the radioiodinated analogue of 1 (4, [125I]-YLFQPQRF-NH2); neuropeptide FF receptor
assay: Competitive radioligand binding against 4 ([125I]Y8F-amide)
protocol conditions: mixture-based positional scanning; difference from averaged radioligand displacement of whole library (0); about 80 a.u. = 10-fold change in Ki
Peptide text beside a SMILES is read from it. * marks the point of attachment. Dansyl = CN(C)c1cccc2c(S(=O)(=O)*)cccc12
property: Relative Binding Index (RBI) (a.u.)

CN(C)c1cccc2c(S(=O)(=O)N[C@@H](CO)C(=O)N[C@@H](CCCNC(=N)N)C(=O)N[C@@H](CCCNC(=N)N)C(N)=O)cccc12 [Dansyl-SRR-amide] (Dansyl-Ser-Arg-Arg-NH2) = 15
C[C@H](NS(=O)(=O)c1cccc2c(N(C)C)cccc12)C(=O)N[C@@H](CCC(N)=O)C(=O)N[C@@H](CCCNC(=N)N)C(N)=O [Dansyl-AQR-amide] (Dansyl-Ala-Gln-Arg-NH2) = 26

(1) CSCC[C@H](NC(=O)[C@H](C)NS(=O)(=O)c1cccc2c(N(C)C)cccc12)C(=O)N[C@@H](CCCNC(=N)N)C(N)=O [Dansyl-AMR-amide] (Dansyl-Ala-Met-Arg-NH2)
(2) CN(C)c1cccc2c(S(=O)(=O)N[C@@H](CCCNC(=N)N)C(=O)N[C@@H](CO)C(=O)N[C@@H](CCCNC(=N)N)C(N)=O)cccc12 [Dansyl-RSR-amide] (Dansyl-Arg-Ser-Arg-NH2)
(3) C[C@@H](O)[C@H](NS(=O)(=O)c1cccc2c(N(C)C)cccc12)C(=O)N[C@@H](Cc1c[nH]c2ccccc12)C(=O)N[C@@H](CCCNC(=N)N)C(N)=O [Dansyl-TWR-amide] (Dansyl-Thr-Trp-Arg-NH2)
Incoming: Ranking field: Relative Binding Index (RBI); order: falling. List labels; respect the requested ordering.
Outgoing: 2, 1, 3
(2: 27 a.u., 1: 12 a.u., 3: 0 a.u.)

---

Tested on: receptor labeled by the radioiodinated analogue of 1 (4, [125I]-YLFQPQRF-NH2); neuropeptide FF receptor
assay: Competitive radioligand binding against 4 ([125I]Y8F-amide)
protocol conditions: mixture-based positional scanning; difference from averaged radioligand displacement of whole library (0); about 80 a.u. = 10-fold change in Ki
Peptide text beside a SMILES is read from it. * marks the point of attachment. Dansyl = CN(C)c1cccc2c(S(=O)(=O)*)cccc12
property: Relative Binding Index (RBI) (a.u.)

(A) CSCC[C@H](NC(=O)[C@H](Cc1ccc(O)cc1)NS(=O)(=O)c1cccc2c(N(C)C)cccc12)C(=O)N[C@@H](CCCNC(=N)N)C(N)=O [Dansyl-YMR-amide] (Dansyl-Tyr-Met-Arg-NH2)
(B) CC(C)[C@H](NC(=O)[C@@H](NS(=O)(=O)c1cccc2c(N(C)C)cccc12)C(C)C)C(=O)N[C@@H](CCCNC(=N)N)C(N)=O [Dansyl-VVR-amide] (Dansyl-Val-Val-Arg-NH2)
(C) CN(C)c1cccc2c(S(=O)(=O)NCC(=O)NCC(=O)N[C@@H](CCCNC(=N)N)C(N)=O)cccc12 [Dansyl-GGR-amide]
Incoming: Rank ascending by Relative Binding Index (RBI). To answer, arrange all of the labels according to the requested order.
Outgoing: B, A, C

---

System: receptor labeled by the radioiodinated analogue of 1 (4, [125I]-YLFQPQRF-NH2); neuropeptide FF receptor
assay: Competitive radioligand binding against 4 ([125I]Y8F-amide)
protocol conditions: mixture-based positional scanning; difference from averaged radioligand displacement of whole library (0); about 80 a.u. = 10-fold change in Ki
Peptide text beside a SMILES is read from it. * marks the point of attachment. Dansyl = CN(C)c1cccc2c(S(=O)(=O)*)cccc12
property: Relative Binding Index (RBI) (a.u.)

Solved entries:
CC(C)C[C@H](NS(=O)(=O)c1cccc2c(N(C)C)cccc12)C(=O)N[C@@H](CC(=O)O)C(=O)N[C@@H](CCCNC(=N)N)C(N)=O [Dansyl-LDR-amide] (Dansyl-Leu-Asp-Arg-NH2) = −50
CN(C)c1cccc2c(S(=O)(=O)N[C@@H](Cc3ccc(O)cc3)C(=O)N[C@@H](CC(=O)O)C(=O)N[C@@H](CCCNC(=N)N)C(N)=O)cccc12 [Dansyl-YDR-amide] (Dansyl-Tyr-Asp-Arg-NH2) = −11
CN(C)c1cccc2c(S(=O)(=O)N[C@@H](CCCNC(=N)N)C(=O)N[C@@H](CCC(N)=O)C(=O)N[C@@H](CCCNC(=N)N)C(N)=O)cccc12 [Dansyl-RQR-amide] (Dansyl-Arg-Gln-Arg-NH2) = 20
CN(C)c1cccc2c(S(=O)(=O)NCC(=O)N[C@@H](Cc3c[nH]cn3)C(=O)N[C@@H](CCCNC(=N)N)C(N)=O)cccc12 [Dansyl-GHR-amide] (Dansyl-Gly-His-Arg-NH2) = 19
CN(C)c1cccc2c(S(=O)(=O)N[C@@H](CCC(N)=O)C(=O)N[C@@H](Cc3c[nH]cn3)C(=O)N[C@@H](CCCNC(=N)N)C(N)=O)cccc12 [Dansyl-QHR-amide] (Dansyl-Gln-His-Arg-NH2) = 16
CN(C)c1cccc2c(S(=O)(=O)N[C@@H](CCC(=O)O)C(=O)N[C@@H](CCC(N)=O)C(=O)N[C@@H](CCCNC(=N)N)C(N)=O)cccc12 [Dansyl-EQR-amide] (Dansyl-Glu-Gln-Arg-NH2) = 30
CN(C)c1cccc2c(S(=O)(=O)N3CCC[C@H]3C(=O)N[C@@H](CC(N)=O)C(=O)N[C@@H](CCCNC(=N)N)C(N)=O)cccc12 [Dansyl-PNR-amide] (Dansyl-Pro-Asn-Arg-NH2) = −47

(a) CSCC[C@H](NC(=O)[C@H](CCSC)NS(=O)(=O)c1cccc2c(N(C)C)cccc12)C(=O)N[C@@H](CCCNC(=N)N)C(N)=O [Dansyl-MMR-amide] (Dansyl-Met-Met-Arg-NH2)
(b) C[C@@H](O)[C@H](NC(=O)[C@H](CCC(N)=O)NS(=O)(=O)c1cccc2c(N(C)C)cccc12)C(=O)N[C@@H](CCCNC(=N)N)C(N)=O [Dansyl-QTR-amide] (Dansyl-Gln-Thr-Arg-NH2)
(c) CN(C)c1cccc2c(S(=O)(=O)N[C@@H](Cc3c[nH]cn3)C(=O)N[C@@H](CC(=O)O)C(=O)N[C@@H](CCCNC(=N)N)C(N)=O)cccc12 [Dansyl-HDR-amide] (Dansyl-His-Asp-Arg-NH2)
Incoming: Put the compounds in ascending order of Relative Binding Index (RBI). Answer by listing the labels in the requested order.
Outgoing: a, c, b
